Test system: T-47D breast
Test: NCI tumour cell line growth inhibition, 48 h
Readout type: GI50

# Molecule, Readout type, Value observed
records = [
    ("COC(=O)[C@H](CCCCNC(=O)OCc1ccccc1)NC(=O)[C@@H](NC(=O)Nc1cc(C(F)(F)F)cc(C(F)(F)F)c1)C(C)C", "GI50", "> 10 µM"),
    ("CC[Si](CC)(CC)OC1[C@@H](O[Si](CC)(CC)CC)[C@@H](CNC(=O)NC)O[C@H]1n1cnc2c(NC(=O)Nc3ccccc3)ncnc21 (some centres not stated)", "GI50", "4.47 µM"),
    ("C(=C\\c1ccc(OCC2CO2)cc1)/C1=NCOC1 (configuration not stated)", "GI50", "3.57 µM"),
    ("O=c1[nH]c2ccccc2n1C1CCN(CCOc2ccccc2)CC1", "GI50", "15.7 µM"),
    ("Cn1cc(-c2nc(-c3cn(C)c4ncccc34)cs2)c2ccccc21", "GI50", "2.98 µM"),
    ("O=C(CCl)Nc1ccc(Cc2ccc(NC(=O)CCl)cc2)cc1", "GI50", "1.65 µM"),
    ("CCOC(=O)c1ccc(NC(=O)c2cccc(NC3=C(Cl)C(=O)N(Cc4ccccc4)C3=O)c2)cc1", "GI50", "> 100 µM"),
    ("CN(C)C/C=C/C(=O)Nc1cc2c(Nc3cccc(Cl)c3F)ncnc2cc1OCCOC(F)F", "GI50", "0.0376 µM"),
    ("COc1cccc(-c2nn(-c3ccccc3)cc2-c2ccnc(NCCCNS(=O)(=O)c3ccc(C(F)(F)F)cc3)c2)c1", "GI50", "2.54 µM"),
    ("Cc1nn(-c2ccccc2)c2nc(C)n(-c3ccc(Br)cc3)c(=O)c12", "GI50", "0.427 µM"),
    ("CCCCC[C@H]1C/C=C2/C(=O)C(Cl)=C[C@@H]2C/C=C\\CCCC(=O)O1", "GI50", "0.554 µM"),
    ("O=C(COc1cccc(/C=C2\\Oc3ccc4ccccc4c3C2=O)c1)c1ccc([N+](=O)[O-])cc1", "GI50", "12.6 µM"),
    ("COc1cc(/C=C/c2ccnc3ccccc23)cc(OC)c1OC", "GI50", "6.58 µM"),
    ("Nc1nc(N)c(-c2ccc(Cl)c(Cl)c2)c(CP(Cl)(Cl)(Cl)Br)n1", "GI50", "34.1 µM"),
    ("Cc1ccc(C2C3Cc4ccccc4C3=NN2c2ccc(S(=O)(=O)NC(=O)Nc3ccccc3)cc2)cc1 (configuration not stated)", "GI50", "36.8 µM"),
    ("NCCCNc1nc2ccccc2c2c(=O)c3cc(F)cc(Cl)c3sc12", "GI50", "1.4 µM"),
    ("COc1ccc(NC(=O)c2cccc(C3CCc4c(cc(OC)c(OC)c4OC)O3)c2)cc1 (configuration not stated)", "GI50", "2.49 µM"),
]
